The reported numbers originate from patent US11840528B2.

Answer each item with its documented Fold increase h-GABA-A α5β3γ2 oocyte.
# EXPERIMENTAL TARGET: h-GABA-A α5β3γ2 (Homo sapiens, UniProt P18507+P31644)
# Sequence (P31644 32-462): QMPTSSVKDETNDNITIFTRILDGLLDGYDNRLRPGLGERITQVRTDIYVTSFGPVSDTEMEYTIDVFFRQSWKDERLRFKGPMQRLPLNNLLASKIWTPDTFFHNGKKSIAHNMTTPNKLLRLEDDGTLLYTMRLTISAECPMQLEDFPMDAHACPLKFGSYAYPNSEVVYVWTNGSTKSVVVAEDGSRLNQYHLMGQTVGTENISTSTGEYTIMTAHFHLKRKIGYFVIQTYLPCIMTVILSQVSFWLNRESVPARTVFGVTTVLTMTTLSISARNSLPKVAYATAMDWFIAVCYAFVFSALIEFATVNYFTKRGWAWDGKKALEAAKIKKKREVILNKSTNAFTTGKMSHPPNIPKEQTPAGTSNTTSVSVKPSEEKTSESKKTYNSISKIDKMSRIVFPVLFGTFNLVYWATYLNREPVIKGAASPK
# Sequence (P28472 26-473 partner): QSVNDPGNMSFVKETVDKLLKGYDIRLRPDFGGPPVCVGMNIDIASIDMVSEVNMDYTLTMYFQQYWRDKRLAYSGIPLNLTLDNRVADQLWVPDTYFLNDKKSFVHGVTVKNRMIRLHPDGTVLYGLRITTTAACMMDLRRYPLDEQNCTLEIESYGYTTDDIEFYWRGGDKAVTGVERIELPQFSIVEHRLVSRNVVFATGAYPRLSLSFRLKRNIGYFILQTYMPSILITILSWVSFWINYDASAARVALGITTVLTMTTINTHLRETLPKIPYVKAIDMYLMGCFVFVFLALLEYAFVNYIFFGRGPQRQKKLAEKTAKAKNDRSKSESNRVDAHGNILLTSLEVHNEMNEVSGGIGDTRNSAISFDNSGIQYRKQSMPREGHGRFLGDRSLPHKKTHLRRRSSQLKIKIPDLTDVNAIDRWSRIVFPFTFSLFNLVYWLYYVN
# Sequence (P18507 40-475): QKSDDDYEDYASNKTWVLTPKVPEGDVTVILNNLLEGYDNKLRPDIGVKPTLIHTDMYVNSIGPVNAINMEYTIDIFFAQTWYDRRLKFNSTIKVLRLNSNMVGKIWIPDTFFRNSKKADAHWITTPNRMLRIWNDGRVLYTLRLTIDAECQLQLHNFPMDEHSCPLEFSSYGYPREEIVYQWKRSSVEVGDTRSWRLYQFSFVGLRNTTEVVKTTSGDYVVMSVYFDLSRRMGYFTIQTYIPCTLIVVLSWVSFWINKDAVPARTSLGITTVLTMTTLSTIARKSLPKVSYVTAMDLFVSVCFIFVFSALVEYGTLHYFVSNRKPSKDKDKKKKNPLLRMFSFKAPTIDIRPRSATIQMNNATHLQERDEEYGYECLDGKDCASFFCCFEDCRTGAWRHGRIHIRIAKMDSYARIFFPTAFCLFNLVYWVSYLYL
# ASSAY TEXT: Two-electrode voltage clamp electrophysiology in Xenopus laevis oocytes expressing GABAA receptors, modulation of GABA EC20 current
# Assay type: cell-based
# Design: host or cells: Xenopus laevis oocytes micro-injected with RNA transcripts of the subunits
# MEASUREMENT CONTEXT: test compound at approx. 30 fold its Ki, GABA at EC20; Table 1
Answer field: number only, no words.

Exam item: Check the records and state Fold increase h-GABA-A α5β3γ2 oocyte for Cc1onc(-c2ccc(Cl)nc2)c1Cn1ncc(-c2cnn(C3CC3)c2)cc1=O
Marked response: 1.82

Exam item: Give the reported Fold increase h-GABA-A α5β3γ2 oocyte for this molecule. Cc1onc(-c2ccc(Cl)nc2)c1Cn1ncc(N2CCO[C@@H](C)C2)cc1=O
Marked response: 2.49

Exam item: Supply reported Fold increase h-GABA-A α5β3γ2 oocyte belonging to this molecule: CCc1nccn1C1CCN(c2cnn(Cc3c(-c4ccc(C)nc4)noc3C)c(=O)c2)CC1
Marked response: 2.07

Exam item: Please give the documented Fold increase h-GABA-A α5β3γ2 oocyte of Cc1ccc(-c2noc(C)c2Cn2ncc(N3CCC3)cc2=O)cn1
Marked response: 2.06
